# target desc: recombinant human A2A receptors (Homo sapiens)
# Construct: membranes
# Sequence (P29274 whole entry): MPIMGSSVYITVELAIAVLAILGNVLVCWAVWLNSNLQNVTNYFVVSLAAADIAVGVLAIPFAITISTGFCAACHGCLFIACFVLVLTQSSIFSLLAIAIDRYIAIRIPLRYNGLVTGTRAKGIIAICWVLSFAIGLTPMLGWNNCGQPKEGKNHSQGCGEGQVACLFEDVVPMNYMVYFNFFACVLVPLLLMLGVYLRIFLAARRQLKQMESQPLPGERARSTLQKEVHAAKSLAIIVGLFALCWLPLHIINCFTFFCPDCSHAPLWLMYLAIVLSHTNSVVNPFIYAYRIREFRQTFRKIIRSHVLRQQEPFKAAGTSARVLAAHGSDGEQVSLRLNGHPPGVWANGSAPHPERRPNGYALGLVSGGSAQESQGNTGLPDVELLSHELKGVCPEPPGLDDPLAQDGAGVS
# procedure text: Radioligand binding assay, A2A receptor
# test parameters: recombinant human A2A receptors in Sf9 cell membranes; competition binding
Reported Ki values for the following molecules.

For orientation, consider the following solved cases.
• COC(=O)N(CC#Cc1nc(N)c2ncn([C@@H]3O[C@H](C(=O)NC4CC4)C(O)C3O)c2n1)C1CCC1 (stereo partly shown) = 11 to 100 nM
• COCCCN(CC#Cc1nc(N)c2ncn([C@@H]3O[C@H](C(=O)NC4CC4)C(O)C3O)c2n1)C(=O)OC (stereo partly shown) = 11 to 100 nM
• COC(=O)N(CC#Cc1nc(N)c2ncn([C@@H]3O[C@H](C(=O)NC4CC4)C(O)C3O)c2n1)C1CC1 (stereo partly shown) = < 10 nM
• CN(CC#Cc1nc(N)c2ncn([C@@H]3O[C@H](C(=O)NC4CC4)C(O)C3O)c2n1)C(=O)OCCOCc1ccccc1 (stereo partly shown) = < 10 nM
• COC(=O)N(C)CC#Cc1nc(N)c2ncn([C@@H]3O[C@H](C(=O)NC4CC4)C(O)C3O)c2n1 (stereo partly shown) = < 10 nM

Problem: Any idea what its Ki is? The molecule is COC(=O)N(CC#Cc1nc(N)c2ncn([C@@H]3O[C@H](C(=O)NC4CC4)C(O)C3O)c2n1)CC(C)C (stereo partly shown)
Result: < 10 nM

Problem: Consider the molecule shown here: CCCN(CC#Cc1nc(N)c2ncn([C@@H]3O[C@H](C(=O)NC4CC4)C(O)C3O)c2n1)C(=O)OC (stereo partly shown) What is its recorded Ki?
Result: < 10 nM

* * *

# target desc: recombinant human A2A receptors (Homo sapiens)
# Construct: membranes
# procedure text: Radioligand binding assay, A2A receptor
# test parameters: recombinant human A2A receptors in Sf9 cell membranes; competition binding
pKi: −log10 of the molar value.
# pKi per entry

Example cases with answers are listed next.
* COC(=O)N(CC#Cc1nc(N)c2ncn([C@@H]3O[C@H](C(=O)NC4CC4)C(O)C3O)c2n1)C1CCCC1 (stereo partly drawn) [Example 14] | > 8.00
* COC(=O)N(CC#Cc1nc(N)c2ncn([C@@H]3O[C@H](C(=O)NC4CC4)C(O)C3O)c2n1)CC1CC1 (stereo partly drawn) [Example 12] | > 8.00
* CCOCCCN(CC#Cc1nc(N)c2ncn([C@@H]3O[C@H](C(=O)NC4CC4)C(O)C3O)c2n1)C(=O)OC (stereo partly drawn) [Example 17] | 7.00 to 7.96
* CN(CC#Cc1nc(N)c2ncn([C@@H]3O[C@H](C(=O)NC4CC4)C(O)C3O)c2n1)C(=O)Oc1ccc(F)cc1 (stereo partly drawn) [Example 4] | 7.00 to 7.96
* COC(=O)N(CC#Cc1nc(N)c2ncn([C@@H]3O[C@H](C(=O)NC4CC4)C(O)C3O)c2n1)C(C)C (stereo partly drawn) [Example 8] | > 8.00
* CN(CC#Cc1nc(N)c2ncn([C@@H]3O[C@H](C(=O)NC4CC4)C(O)C3O)c2n1)C(=O)Oc1ccccc1 (stereo partly drawn) [Example 2] | > 8.00
* COC(=O)N(CC#Cc1nc(N)c2ncn([C@@H]3O[C@H](C(=O)NC4CC4)C(O)C3O)c2n1)Cc1ccccc1 (stereo partly drawn) [Example 10] | 7.00 to 7.96
* CCN(CC#Cc1nc(N)c2ncn([C@@H]3O[C@H](C(=O)NC4CC4)C(O)C3O)c2n1)C(=O)OC (stereo partly drawn) [Example 6] | > 8.00

Attention now shifts to the item below.
Problem: Quick check: pKi of COCCN(CC#Cc1nc(N)c2ncn([C@@H]3O[C@H](C(=O)NC4CC4)C(O)C3O)c2n1)C(=O)OC (stereo partly drawn) [Example 15] ?
Result: > 8.00
